Attribution: paper PMC6875038

- Test protocol: Stability of the ginsenosides in rat plasma (QC samples)
- Format: in vitro ADME
- Particulars: rat plasma, middle QC (142.4 Rb1, 62.5 Rb2, 48.8 Rd, 98.6 Re ng/mL); three freeze-thaw cycles at −80°C
Each item that follows carries a reported Recovery (%) Freeze-thaw cycles.
Report the value in % with no unit label.

Known results for compounds:
1. CC(C)=CCC[C@](C)(O[C@@H]1O[C@H](CO)[C@@H](O)[C@H](O)[C@H]1O)[C@H]1CC[C@]2(C)[C@@H]1[C@H](O)C[C@@H]1[C@@]3(C)CC[C@H](O)C(C)(C)[C@@H]3[C@@H](O[C@@H]3O[C@H](CO)[C@@H](O)[C@H](O)[C@H]3O[C@@H]3O[C@@H](C)[C@H](O)[C@@H](O)[C@H]3O)C[C@]12C [Re] ... 94.12
2. CC(C)=CCC[C@](C)(O[C@@H]1O[C@H](CO)[C@@H](O)[C@H](O)[C@H]1O)[C@H]1CC[C@]2(C)[C@@H]1[C@H](O)C[C@@H]1[C@@]3(C)CC[C@H](O[C@@H]4O[C@H](CO)[C@@H](O)[C@H](O)[C@H]4O[C@@H]4O[C@H](CO)[C@@H](O)[C@H](O)[C@H]4O)C(C)(C)[C@@H]3CC[C@]12C [Rd] ... 100.20
3. CC(C)=CCC[C@](C)(O[C@@H]1O[C@H](CO[C@@H]2OC[C@H](O)[C@H](O)[C@H]2O)[C@@H](O)[C@H](O)[C@H]1O)[C@H]1CC[C@]2(C)[C@@H]1[C@H](O)C[C@@H]1[C@@]3(C)CC[C@H](O[C@@H]4O[C@H](CO)[C@@H](O)[C@H](O)[C@H]4O[C@@H]4O[C@H](CO)[C@@H](O)[C@H](O)[C@H]4O)C(C)(C)[C@@H]3CC[C@]12C [Rb2] ... 100.41

Returns the measured Recovery (%) Freeze-thaw cycles for the input compound. Input: CC(C)=CCC[C@](C)(O[C@@H]1O[C@H](CO[C@@H]2O[C@H](CO)[C@@H](O)[C@H](O)[C@H]2O)[C@@H](O)[C@H](O)[C@H]1O)[C@H]1CC[C@]2(C)[C@@H]1[C@H](O)C[C@@H]1[C@@]3(C)CC[C@H](O[C@@H]4O[C@H](CO)[C@@H](O)[C@H](O)[C@H]4O[C@@H]4O[C@H](CO)[C@@H](O)[C@H](O)[C@H]4O)C(C)(C)[C@@H]3CC[C@]12C [Rb1]
95.35
